Assay: Toxicity in mouse assessed as lethal dose
Format: organism-based
Settings: in vivo
result type: LD50 (mg/kg)
One number for each entry, in mg/kg.

Field LD50 (entry Cc1ccc(C)c(OCCCC(C)(C)C(=O)O)c1 [GEMFIBROZIL] ) reads 3160
